target.of.assay: Phosphatidylinositol 4,5-bisphosphate 3-kinase catalytic subunit alpha isoform (Homo sapiens, UniProt P42336)
Sequence (P42336 whole entry, canonical isoform): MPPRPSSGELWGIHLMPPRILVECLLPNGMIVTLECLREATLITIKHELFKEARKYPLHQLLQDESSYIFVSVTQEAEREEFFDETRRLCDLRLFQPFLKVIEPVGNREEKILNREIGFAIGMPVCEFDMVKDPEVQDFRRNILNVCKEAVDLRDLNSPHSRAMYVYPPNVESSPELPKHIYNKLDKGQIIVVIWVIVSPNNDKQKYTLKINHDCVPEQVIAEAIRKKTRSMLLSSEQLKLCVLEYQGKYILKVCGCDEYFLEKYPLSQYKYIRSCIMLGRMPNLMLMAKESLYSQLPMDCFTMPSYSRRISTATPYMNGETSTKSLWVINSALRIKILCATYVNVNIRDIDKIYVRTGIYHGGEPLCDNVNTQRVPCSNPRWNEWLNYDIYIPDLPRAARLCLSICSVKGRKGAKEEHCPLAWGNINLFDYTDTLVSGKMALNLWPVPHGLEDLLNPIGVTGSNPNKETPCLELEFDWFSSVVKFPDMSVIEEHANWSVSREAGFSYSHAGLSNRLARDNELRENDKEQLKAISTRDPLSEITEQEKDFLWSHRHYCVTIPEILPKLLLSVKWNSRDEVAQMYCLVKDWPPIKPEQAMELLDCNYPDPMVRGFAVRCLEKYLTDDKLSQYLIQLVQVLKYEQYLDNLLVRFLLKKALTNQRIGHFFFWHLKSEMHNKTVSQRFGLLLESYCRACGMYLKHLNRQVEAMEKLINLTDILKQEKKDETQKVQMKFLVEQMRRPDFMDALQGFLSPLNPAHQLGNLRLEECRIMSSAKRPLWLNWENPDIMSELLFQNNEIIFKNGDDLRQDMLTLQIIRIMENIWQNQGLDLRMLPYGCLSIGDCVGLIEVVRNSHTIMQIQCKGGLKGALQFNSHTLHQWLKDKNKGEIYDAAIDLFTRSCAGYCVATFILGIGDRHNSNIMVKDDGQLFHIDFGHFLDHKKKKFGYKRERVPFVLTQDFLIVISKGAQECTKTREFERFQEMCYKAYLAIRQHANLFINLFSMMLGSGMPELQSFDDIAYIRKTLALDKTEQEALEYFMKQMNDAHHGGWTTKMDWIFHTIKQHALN
method.summary: ADP-Glo Kinase Assay
pIC50: −log10 of the molar value.
Please respond with reported pIC50 for every item in the list.

Tell me the measured pIC50 of Cn1nc2c(-c3ccc4ncnn4c3C#N)cc(NC(=O)c3cc(F)cc(C(F)(F)F)c3)c3c2c1C(=O)NC3c1cc(F)ccc1Cl (stereo not drawn) , please. < 5.00

Return reported pIC50; argument: Cn1nc2ccc(NC(=O)c3cc(F)cc(C(F)(F)F)c3)c3c2c1C(=O)NC3c1cc(Cl)ccc1Cl (stereo not drawn) < 5.00

Need pIC50, item Cn1nc2c(-c3ccc4ncnn4c3C#N)cc(NC(=O)c3cc(F)cc(C(F)(F)F)c3)c3c2c1C(=O)NC3c1cc(Cl)ccc1Cl (stereo not drawn) < 5.00
